Entry source: patent US20180244802A1

# Target: T1, NR1 construct with mutation N368Q (human, UniProt Q05586 19-938)
# T1 construct: whole, on cells; also called mutated NR1 construct; the mutant
# Method notes: immunofluorescence staining of HEK293 cells transfected with NR1 N368Q
Measured metric: binding result

007-142 (antibody, V domains shown, also called 007-142-HC; 007-142-LC) VH: EVQLVQSGAEVKKPGESLKISCKGSGYSFTSYWIGWVRQMPGKGLEWMGIIYPGDSDTRYSPSFQGQVTISADKSISTAYLQWSSLKASDTAMYYCARDYGDYYFDYWGQGTLVTVSS VL: LTQPRSVSGSPGQSVTISCTGTSSDVGGYNYVSWYQQHPGKAPKLMIYDVSKRPSGVPDRFSGSKSGNTASLTISGLQAEDEADYYCCSYAGSYTGVFGGGTKLTVL: no binding
003-109 (antibody, V domains shown, also called 003-109-HC; 003-109-LC) VH: VQLVESGGGVVQPGRSLRLSCAASGFTFSSYGMHWVRQAPGKGLEWVAVIWYDGSNKYYADSVKGRFTISRDNSKNTLYLQMNSLRAEDTAVYYCARRHYDFDAFDIWGQGTMVTVSS VL: QSALTQPASVSGSPGQSITISCTGTSSDVGGYNYVSWYQQHPGKAPKLMIYEVSNRPSGVSNRFSGSKSGNTASLTISGLQAEDEADYYCSSYTSSSTLYVFGTGTKVTVL: no binding
008-218 (antibody, human IgG1, V domains shown, also called 008-218-HC; 008-218-LC) VH: EVQLVESGGGLVQPGRSLRLSCAASGFTFDDYAMHWVRQVPGKGLEWVSGISWSSGSIGYADSVKGRFTISRDNAKNSLYLQMNSLRAEDTALYYCAKDRASSWYAYGMDVWGQGTLVTV VL: NFMLTQPHSVSESPGKTVTISCTRSSGSIASNYVQWYQQRPGSSPTTVIYDDNQRPSGVPNRFSGSIDSSSNSASLIISGLKTEDEADYYCQSTRVFGGGTKLTVL: no binding
